# test_description: mn = molality of the nth substance listed, in mol/kg
# details: 308.15 K; 100 kPa; Liquid; Capillary tube (Ostwald / Ubbelohde) method; m1 = 0.1
± gives the expanded uncertainty stated by the source.
recorded_endpoint: viscosity

QUERY: Determine its reported viscosity: COc1cc(-c2cc(-c3ccccc3O)[nH]c(=O)c2C#N)ccc1O + C[S+](C)[O-]
RESULT: 1.716 ± 0.31 mPa·s

QUERY: Give the measured viscosity for COc1cc(-c2cc(-c3ccc(Cl)cc3)[nH]c(=O)c2C#N)ccc1O + C[S+](C)[O-]
RESULT: 1.73 ± 0.31 mPa·s

QUERY: Please give the documented viscosity of COc1cc(-c2cc(-c3ccc(O)cc3)[nH]c(=O)c2C#N)ccc1O + C[S+](C)[O-]
RESULT: 1.729 ± 0.31 mPa·s

QUERY: Report viscosity for COc1cc(-c2cc(-c3ccccc3)[nH]c(=O)c2C#N)ccc1O + C[S+](C)[O-]
RESULT: 1.697 ± 0.31 mPa·s

---

Measured viscosity accompanies every entry in the list below.
# test_description: mn = molality of the nth substance listed, in mol/kg
# details: 298.15 K; 100 kPa; Liquid; Capillary tube (Ostwald / Ubbelohde) method; m1 = 0.02
Reply numerically in mPa·s, unit not repeated.

COc1cc(-c2cc(-c3ccccc3O)[nH]c(=O)c2C#N)ccc1O + C[S+](C)[O-]
1.958
COc1cc(-c2cc(-c3ccc(O)cc3)[nH]c(=O)c2C#N)ccc1O + C[S+](C)[O-]
1.963
COc1cc(-c2cc(-c3ccc(Cl)cc3)[nH]c(=O)c2C#N)ccc1O + C[S+](C)[O-]
1.993

Turning to the following compound.
QUERY: Quickly give me recorded viscosity for COc1cc(-c2cc(-c3ccccc3)[nH]c(=O)c2C#N)ccc1O + C[S+](C)[O-]
RESULT: 1.916

---

Normal melting temperature: recorded values
# details: Crystal; DTA
Numbers after ± are expanded uncertainties.

Some entries whose results are on file:
COc1cc(-c2cc(-c3ccccc3O)[nH]c(=O)c2C#N)ccc1O
234.49 ± 1.8 °C
COc1cc(-c2cc(-c3ccc(Cl)cc3)[nH]c(=O)c2C#N)ccc1O
328.34 ± 1.8 °C
COc1cc(-c2cc(-c3ccccc3)[nH]c(=O)c2C#N)ccc1O
343.12 ± 1.8 °C

Alright, here's another molecule for you.
QUERY: Give me measured Normal melting temperature, please, for this molecule: COc1cc(-c2cc(-c3ccc(O)cc3)[nH]c(=O)c2C#N)ccc1O
RESULT: 326.33 ± 1.8 °C

---

# test_description: mn = molality of the nth substance listed, in mol/kg
# details: 298.15 K; 100 kPa; Liquid; Capillary tube (Ostwald / Ubbelohde) method; m1 = 0.06
recorded_endpoint: viscosity (mPa·s)
Expressed in mPa·s, but write only the number.

Check out these entries, answers already filled in.
COc1cc(-c2cc(-c3ccc(Cl)cc3)[nH]c(=O)c2C#N)ccc1O + C[S+](C)[O-]
2.081
COc1cc(-c2cc(-c3ccccc3O)[nH]c(=O)c2C#N)ccc1O + C[S+](C)[O-]
2.124

QUERY: Please give measured viscosity of the following entry: COc1cc(-c2cc(-c3ccc(O)cc3)[nH]c(=O)c2C#N)ccc1O + C[S+](C)[O-]
RESULT: 2.144

QUERY: Find the measured viscosity of COc1cc(-c2cc(-c3ccccc3)[nH]c(=O)c2C#N)ccc1O + C[S+](C)[O-] and report it.
RESULT: 2.02

The measurements presented in this section are drawn from the NIST ThermoML archive (doi:10.1021/acs.jced.5b00627).
